Listed below: % maximal contractional effect values for each entry.
test system: contractile response to potassium-induced depolarization on isolated rat aorta; assay: Calcium inhibitory properties: antagonism of contractile response to potassium-induced depolarization on isolated rat aorta; design: species or system rat (male Wistar); settings: 10^-9 M; percent of maximal contraction before incubation; 60 min, 0.001 µM

Reference set, count: 3
compound	studySystem	% maximal contractional effect
CCc1nn2cccc(C)c2c1S(=O)(=O)c1ccc(OCCCN(C)CCc2ccc(OC)c(OC)c2)cc1	contractile response to potassium-induced depolarization on isolated rat aorta	72,9%
COc1ccc(CCN(C)CCCOc2ccc(S(=O)(=O)c3c(C(C)C)c4cccc(C)c4n3C)cc2)cc1OC	contractile response to potassium-induced depolarization on isolated rat aorta	79%
COc1ccc(CCN(C)CCCOc2ccc(S(=O)(=O)c3c(C(C)C)cn4ccccc34)cc2)cc1OC [C, reference compound]	contractile response to potassium-induced depolarization on isolated rat aorta	81,7%

State the recorded % maximal contractional effect for this entry: `COc1ccc(CCN(C)CCCOc2ccc(S(=O)(=O)c3c(C(C)C)cn4c(C)cccc34)cc2)cc1OC`
77,9%

State the recorded % maximal contractional effect for this entry: Cc1nn2cccc(C)c2c1S(=O)(=O)c1ccc(OCCCN(C)C2CCCc3ccccc32)cc1 (centres unmarked)
85%

State the recorded % maximal contractional effect for this entry: `CCCCN(CCCC)CCCOc1ccc(S(=O)(=O)c2c(C(C)C)c3cc(OC)ccc3n2C)cc1.O=C(O)C(=O)O`
93,9%

State the recorded % maximal contractional effect for this entry: `COc1ccc(CCN(C)CCCOc2ccc(S(=O)(=O)c3c(C(C)C)n(C)c4cc(C)ccc34)cc2)cc1OC`
83,2%

State the recorded % maximal contractional effect for this entry: `CCCCN(CCCC)CCCOc1ccc(S(=O)(=O)c2c(C)nn3cccc(C)c23)cc1.O=C(O)C(=O)O`
75,7%

====

Listed below: % maximal contractional effect values for each entry.
test system: contractile response to potassium-induced depolarization on isolated rat aorta; experiment: Calcium inhibitory properties: antagonism of contractile response to potassium-induced depolarization on isolated rat aorta; set-up: species or system rat (male Wistar); conditions: 10^-8 M; percent of maximal contraction before incubation; 60 min, 0.01 µM

Reference set, count: 10
compound	% maximal contractional effect
CCCCN(CCCC)CCCOc1ccc(S(=O)(=O)c2c(C(C)C)n(C)c3cccc(C)c23)cc1.O=C(O)C(=O)O	37,1%
COc1ccc(CCN(C)CCCOc2ccc(S(=O)(=O)c3c(C(C)C)nn4c(C)cccc34)cc2)cc1OC	29,1%
COc1ccc(CCN(C)CCCOc2ccc([S+]([O-])c3c(C(C)C)c4cccc(C)c4n3C)cc2)cc1OC (centres unmarked)	76,4%
COc1ccc(CCN(C)CCCOc2ccc(S(=O)(=O)c3c(C(C)C)cn4ccccc34)cc2)cc1OC [C, reference compound]	40,1%
CCCCN(CCCC)CCCOc1ccc(S(=O)(=O)c2c(C)nn3cccc(C)c23)cc1.O=C(O)C(=O)O	62,9%
COc1ccc2[nH]c(S(=O)(=O)c3ccc(OCCCN(C)CCc4ccc(OC)c(OC)c4)cc3)c(C(C)C)c2c1	48,7%
CCCCN(CCCC)CCCOc1ccc(S(=O)(=O)c2c(C)nn3c(C)cccc23)cc1	77,1%
CCCCN(CCCC)CCCOc1ccc(S(=O)(=O)c2c(C(C)C)n(C)c3ccc(Cl)cc23)cc1.O=C(O)C(=O)O	85,7%
COc1ccc(CCN(C)CCCOc2ccc([S+]([O-])c3c(C(C)C)c4cc(Cl)ccc4n3C)cc2)cc1OC (centres unmarked)	61,3%
COc1ccc(CCN(C)CCCOc2ccc(S(=O)(=O)c3c(C(C)C)c4cccc(C)c4n3C)cc2)cc1OC	56,4%

Under contractile response to potassium-induced depolarization on isolated rat aorta: % maximal contractional effect value of `COc1ccc(CCN(C)CCCOc2ccc(S(=O)(=O)c3c(C(C)C)n(CCN(C)C)c4ccccc34)cc2)cc1OC` ?
85,9%

Under contractile response to potassium-induced depolarization on isolated rat aorta: % maximal contractional effect value of `COc1cc(OC)c(C(C)C)c(S(=O)(=O)c2ccc(OCCCN(C)CCc3ccc(OC)c(OC)c3)cc2)c1.O=C(O)C(=O)O` ?
63,4%

Under contractile response to potassium-induced depolarization on isolated rat aorta: % maximal contractional effect value of `CCCCN(CCCC)CCCOc1ccc(S(=O)(=O)c2c(C(C)C)cn3cccc(C)c23)cc1` ?
9,7%

Under contractile response to potassium-induced depolarization on isolated rat aorta: % maximal contractional effect value of `CCN(CC)CCn1c(C(C)C)c(S(=O)(=O)c2ccc(OCCCN(C)CCc3ccc(OC)c(OC)c3)cc2)c2ccccc21` ?
84,5%

Under contractile response to potassium-induced depolarization on isolated rat aorta: % maximal contractional effect value of `COc1ccc(CCN(C)CCCOc2ccc(S(=O)(=O)c3c(C(C)C)cn4c(C)cccc34)cc2)cc1OC` ?
29,8%

Under contractile response to potassium-induced depolarization on isolated rat aorta: % maximal contractional effect value of `COc1ccc2[nH]c(C)c(Sc3ccc(OCCCN(C)CCc4ccc(OC)c(OC)c4)cc3)c2c1` ?
84,4%

Under contractile response to potassium-induced depolarization on isolated rat aorta: % maximal contractional effect value of `COc1ccc(CCN(C)CCCOc2ccc(S(=O)(=O)c3c(C(C)C)n(C)c4cccc(C)c34)cc2)cc1OC` ?
29,9%

====

Listed below: % maximal contractional effect values for each entry.
tested on: contractile response to potassium-induced depolarization on isolated rat aorta; assay: Calcium inhibitory properties: antagonism of contractile response to potassium-induced depolarization on isolated rat aorta; design: species or system rat (male Wistar); details: 10^-8 M; percent of maximal contraction before incubation; 60 min, 0.01 µM

molecule	obsValue
COc1cc(CCN(C)CCCOc2ccc(S(=O)(=O)c3c(C(C)C)cn4cccc(C)c34)cc2)cc(OC)c1	12,7%
CCCCN(CCCC)CCCOc1ccc(S(=O)(=O)c2c(C(C)C)c3cc(OC)ccc3n2C)cc1.O=C(O)C(=O)O	72,6%

Let's switch to this molecule now.
State the recorded % maximal contractional effect for this entry: CCCCN(CCCC)CCCOc1ccc(S(=O)(=O)c2c(C(C)C)cn3ccccc23)cc1 [B, reference compound]
61%

====

tested on: contractile response to potassium-induced depolarization on isolated rat aorta; test: Calcium inhibitory properties: antagonism of contractile response to potassium-induced depolarization on isolated rat aorta; set-up: species or system rat (male Wistar); settings: 10^-9 M; percent of maximal contraction before incubation; 60 min, 0.001 µM
measuredProperty: % maximal contractional effect

compound	% maximal contractional effect
COc1ccc(CCN(C)CCCOc2ccc([S+]([O-])c3c(C(C)C)c4cc(Cl)ccc4n3C)cc2)cc1OC (centres unmarked)	78,6%
COc1ccc(CCN(C)CCCOc2ccc([S+]([O-])c3c(C(C)C)c4cccc(C)c4n3C)cc2)cc1OC (centres unmarked)	89,9%
COc1ccc2c(c1)c(C(C)C)c(S(=O)(=O)c1ccc(OCCCN(C)CCc3ccc(OC)c(OC)c3)cc1)n2CCCN(C)CCc1ccc(OC)c(OC)c1	90,8%
CCCCN(CCCC)CCCOc1ccc(S(=O)(=O)c2c(C)nn3c(C)cccc23)cc1	85,7%

State the recorded % maximal contractional effect for this entry: CC(C)c1c(S(=O)(=O)c2ccc(OCCCN(C)C3CCCc4ccccc43)cc2)c2cc(Cl)ccc2n1C.O=C(O)C(=O)O (centres unmarked)
91,4%

====

Listed below: % maximal contractional effect values for each entry.
test system: contractile response to potassium-induced depolarization on isolated rat aorta; assay: Calcium inhibitory properties: antagonism of contractile response to potassium-induced depolarization on isolated rat aorta; set-up: species or system rat (male Wistar); settings: 10^-9 M; percent of maximal contraction before incubation; 60 min, 0.001 µM

smiles	% maximal contractional effect
COc1ccc2[nH]c(S(=O)(=O)c3ccc(OCCCN(C)CCc4ccc(OC)c(OC)c4)cc3)c(C(C)C)c2c1	93,7%
CCCCN(CCCC)CCCOc1ccc(S(=O)(=O)c2c(C(C)C)n(C)c3cccc(C)c23)cc1.O=C(O)C(=O)O	83,1%
CCCCN(CCCC)CCCOc1ccc(S(=O)(=O)c2c(C(C)C)n(C)c3cc(C)ccc23)cc1.O=C(O)C(=O)O	79,5%
COc1ccc(CCN(C)CCCOc2ccc(S(=O)(=O)c3c(C(C)C)cn4cccc(C)c34)cc2)cc1OC	41,0%
COc1ccc(CCN(C)CCCOc2ccc(S(=O)(=O)c3c(C(C)C)c4cc(Cl)ccc4n3C)cc2)cc1OC	68,4%
COc1cc(CCN(C)CCCOc2ccc(S(=O)(=O)c3c(C(C)C)cn4cccc(C)c34)cc2)cc(OC)c1	41,8%

State the recorded % maximal contractional effect for this entry: `CCCCN(CCCC)CCCOc1ccc(S(=O)(=O)c2c(C(C)C)cn3cccc(C)c23)cc1`
51,4%

====

tested on: contractile response to potassium-induced depolarization on isolated rat aorta; assay: Calcium inhibitory properties: antagonism of contractile response to potassium-induced depolarization on isolated rat aorta; design: species or system rat (male Wistar); conditions: 10^-9 M; percent of maximal contraction before incubation; 60 min, 0.001 µM
measuredProperty: % maximal contractional effect

Reference set, count: 2
molecule	measuredProperty	obsValue
CCc1nn2cc(C)ccc2c1S(=O)(=O)c1ccc(OCCCN(C)CCc2ccc(OC)c(OC)c2)cc1 [Ex. 81]	% maximal contractional effect	85,3%
COc1ccc(CCN(C)CCCOc2ccc(S(=O)(=O)c3c(C(C)C)n(C)c4cccc(C)c34)cc2)cc1OC [Ex. 65]	% maximal contractional effect	76,1%

State the recorded % maximal contractional effect for this entry: COc1ccc(CCN(C)CCCOc2ccc(S(=O)(=O)c3c(C(C)C)nn4c(C)cccc34)cc2)cc1OC [Ex. 50]
65,6%

State the recorded % maximal contractional effect for this entry: COc1ccc2[nH]c(C)c(Sc3ccc(OCCCN(C)CCc4ccc(OC)c(OC)c4)cc3)c2c1 [Ex. 9]
88%
